target: T1, Histidine-tagged human CD40 protein (hCD40-His) (human, UniProt P25942 21-193); assay: SPR, Biacore T200; antibody on Protein A chip, hCD40-His injected; 1:1 fit
T1 construct: not shown: histidine tag
T1 sequence (P25942 21-193 limits assumed): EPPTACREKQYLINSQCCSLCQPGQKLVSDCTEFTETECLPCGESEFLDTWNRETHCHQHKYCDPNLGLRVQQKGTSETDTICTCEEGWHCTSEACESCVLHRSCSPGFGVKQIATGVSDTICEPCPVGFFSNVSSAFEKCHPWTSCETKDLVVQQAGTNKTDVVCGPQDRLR
readout kind: Kd (nM)
Please give a number only; it is taken to be in nM.

// solved cases for Kd follow
binder	unit annotation	numeric value
4H6-H1K3-IgG4 (antibody, V domains shown, Humanized) VH: QVQLQESGPGLVKPSQTLSLTCTVSGDSVSSGYWNWIRKHPGKKLEWIGFISYSGSTYYTPSLKSRVTISRDTSKNQFSLKLSSVTAADTAVYYCARFRRYDDGVDYWGQGTLVTVSS VL: DIQMTQSPSAMSASVGDRVTITCRASHEISGYLSWIQQKPGGTIKRLINAASTLASGVPSRFSGSRSGTEYTLTISSLQPEDFADYYCLQYSSYPWTFGGGTKLEIK	nM	229
6A7-H4K1-IgG4 (antibody, V domains shown, Humanized) VH: QVQLVQSGAEVKKPGASVKLSCKASGYTFISYYIYWVKQAPGQGLEWIGGINPRNGGTNFNEKFKSRATLTVDTSISTAYMELSRLRSEDTAVYYCTRHGNGVYWGQGTTLTVSS VL: DVVMTQSPLSLPVTLGQPASISCRSSQSLLHSNGNTYLHWFQQRPGQSPRHLIYQVSNRFSGVPDRFSGSGSGTDFTLKISRVEAEDVGVYYCSQTTHVPWTFGGGTKVEIK	nM	23.9

// below: Kd requested for another binder
Input 4H6-H1K4-IgG4 (antibody, V domains shown, Humanized) VH: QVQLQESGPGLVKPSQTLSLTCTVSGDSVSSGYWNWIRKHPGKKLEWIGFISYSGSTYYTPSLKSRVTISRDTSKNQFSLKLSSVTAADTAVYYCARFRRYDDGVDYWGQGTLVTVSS VL: DIQMTQSPSAMSASVGDRVTLTCRASHEISGYLSWIQQKPGGTIKRLINAASTLASGVPSRFSGSRSGTEYTLTISSLQPEDFADYYCLQYSSYPWTFGGGTKLEIK . Output Kd: 465

Attribution: patent US20250034271A1
